# log10(GI50) listing for each entry below
Assay: Growth inhibition of human ovarian cancer cell by NCI-CLS assay
Type: functional
Settings: Cancer cell lines
Where a name gives a salt, the structure may show the parent alone.
test-readout: log10(GI50) (log10 of the value in µM)

[[record]]
compound = "CC[C@]1(O)C[C@H]2CN(CCc3c([nH]c4ccccc34)[C@@](C(=O)OC)(c3cc4c(cc3OC)N(C=O)[C@H]3[C@@](O)(C(=O)OC)[C@H](OC(C)=O)[C@]5(CC)C=CCN6CC[C@]43[C@@H]65)C2)C1 [VINCRISTINE SULFATE]"
measured_value = -0.52

[[record]]
compound = "Cc1[nH]c(C)c(/C=C2/C(=O)Nc3ccc(F)cc32)c1/C=C1/C(=O)Nc2ccc(F)cc21"
measured_value = 0.91

[[record]]
compound = "O=C1Nc2cccc(Cl)c2/C1=C\\c1cccc(/C=C2/C(=O)Nc3cccc(Cl)c32)c1"
measured_value = 0.43

[[record]]
compound = "COc1ccc2c(c1)/C(=C\\c1cc(C(C)(C)C)cc(/C=C3/C(=O)Nc4ccc(OC)cc43)c1O)C(=O)N2"
measured_value = 0.77

[[record]]
compound = "O=C1Nc2cccc(Cl)c2/C1=C\\c1ccc2ccc3ccc(/C=C4/C(=O)Nc5cccc(Cl)c54)nc3c2n1"
measured_value = 0.79

[[record]]
compound = "COc1ccc2c(c1)/C(=C\\c1ccc3ccc4ccc(/C=C5/C(=O)Nc6ccc(OC)cc65)nc4c3n1)C(=O)N2"
measured_value = 0.74

[[record]]
compound = "O=C1Nc2cc(OC(F)(F)F)ccc2/C1=C\\c1cccc(/C=C2/C(=O)Nc3cc(OC(F)(F)F)ccc32)n1"
measured_value = -0.40

[[record]]
compound = "COc1ccc2c(c1)/C(=C\\c1ccccc1/C=C1/C(=O)Nc3ccc(OC)cc31)C(=O)N2"
measured_value = 1.15

[[record]]
compound = "CC(C)(C)c1cc(/C=C2/C(=O)Nc3cccc(Cl)c32)c(O)c(/C=C2/C(=O)Nc3cccc(Cl)c32)c1"
measured_value = 0.34


----------
Experiment: Growth inhibition of human melanoma cell by NCI-CLS assay
Format: functional
Details: read-out: LC50 (the source's name)
test-readout: CC50 (µM)

[[record]]
molecule_smiles = "O=C1Nc2cccc(Cl)c2/C1=C\\c1ccc2ccc3ccc(/C=C4/C(=O)Nc5cccc(Cl)c54)nc3c2n1"
test_readout = "CC50"
measured_value = 61.7

[[record]]
molecule_smiles = "O=C1Nc2cc(OC(F)(F)F)ccc2/C1=C\\c1cccc(/C=C2/C(=O)Nc3cc(OC(F)(F)F)ccc32)n1"
test_readout = "CC50"
measured_value = 5.7

[[record]]
molecule_smiles = "COc1ccc2c(c1)/C(=C\\c1cc(C(C)(C)C)cc(/C=C3/C(=O)Nc4ccc(OC)cc43)c1O)C(=O)N2"
test_readout = "CC50"
measured_value = 39.8

[[record]]
molecule_smiles = "COc1ccc2c(c1)/C(=C\\c1ccc3ccc4ccc(/C=C5/C(=O)Nc6ccc(OC)cc65)nc4c3n1)C(=O)N2"
test_readout = "CC50"
measured_value = 74.1

[[record]]
molecule_smiles = "O=C1Nc2cccc(Cl)c2/C1=C\\c1cccc(/C=C2/C(=O)Nc3cccc(Cl)c32)c1"
test_readout = "CC50"
measured_value = 34.7


----------
# TGI listing for each entry below
Assay: Growth inhibition of human renal cancer cell by NCI-CLS assay
Assay type: functional
Details: Cancer cell lines
Structures can show the parent of a compound that is named as a salt.
test-readout: TGI (µM)

[[record]]
molecule = "COc1ccc2c(c1)/C(=C\\c1cccc(/C=C3/C(=O)Nc4ccc(OC)cc43)c1)C(=O)N2"
unit_of_measure = "µM"
measured_value = 6.2

[[record]]
molecule = "COc1cc2c(c(OC)c1OC)/C(=C\\c1cccc(/C=C3/C(=O)Nc4cc(OC)c(OC)c(OC)c43)n1)C(=O)N2"
unit_of_measure = "µM"
measured_value = 0.7

[[record]]
molecule = "CC[C@]1(O)C[C@H]2CN(CCc3c([nH]c4ccccc34)[C@@](C(=O)OC)(c3cc4c(cc3OC)N(C=O)[C@H]3[C@@](O)(C(=O)OC)[C@H](OC(C)=O)[C@]5(CC)C=CCN6CC[C@]43[C@@H]65)C2)C1 [VINCRISTINE SULFATE]"
unit_of_measure = "µM"
measured_value = 19.9


----------
Assay: Growth inhibition of human ovarian cancer cell by NCI-CLS assay
Format: functional
Settings: Cancer cell lines
Structures can show the parent of a compound that is named as a salt.
test-readout: TGI (µM)

[[record]]
compound = "CC[C@]1(O)C[C@H]2CN(CCc3c([nH]c4ccccc34)[C@@](C(=O)OC)(c3cc4c(cc3OC)N(C=O)[C@H]3[C@@](O)(C(=O)OC)[C@H](OC(C)=O)[C@]5(CC)C=CCN6CC[C@]43[C@@H]65)C2)C1 [VINCRISTINE SULFATE]"
measured_value = 19.9

[[record]]
compound = "O=C1Nc2cccc(Cl)c2/C1=C\\c1ccc2ccc3ccc(/C=C4/C(=O)Nc5cccc(Cl)c54)nc3c2n1"
measured_value = 30.9

[[record]]
compound = "O=Cc1cccc(/C=C2/C(=O)Nc3c2ccc2ccccc32)n1"
measured_value = 30.9


----------
# TGI listing for each entry below
Experiment: Growth inhibition of human ovarian cancer cell by NCI-CLS assay
Type: functional
Conditions: Cancer cell lines
test-readout: TGI (µM)

[[record]]
molecule_smiles = "CC(C)(C)c1cc(/C=C2/C(=O)Nc3cccc(Cl)c32)c(O)c(/C=C2/C(=O)Nc3cccc(Cl)c32)c1"
test_readout = "TGI"
unit_of_measure = "µM"
measured_value = 15.8

[[record]]
molecule_smiles = "COc1cc2c(c(OC)c1OC)/C(=C\\c1cccc(/C=C3/C(=O)Nc4cc(OC)c(OC)c(OC)c43)n1)C(=O)N2"
test_readout = "TGI"
unit_of_measure = "µM"
measured_value = 0.8

[[record]]
molecule_smiles = "O=C1Nc2cc(OC(F)(F)F)ccc2/C1=C\\c1cccc(/C=C2/C(=O)Nc3cc(OC(F)(F)F)ccc32)n1"
test_readout = "TGI"
unit_of_measure = "µM"
measured_value = 2.5

[[record]]
molecule_smiles = "Cc1[nH]c(C)c(/C=C2/C(=O)Nc3ccc(F)cc32)c1/C=C1/C(=O)Nc2ccc(F)cc21"
test_readout = "TGI"
unit_of_measure = "µM"
measured_value = 25.7


----------
Experiment: Growth inhibition of human breast cancer cell by NCI-CLS assay
Assay type: functional
Details: Cancer cell lines
Binary call on GI50 with cut-off 6 µM: strictly below means MET, and equality or higher means NOT MET.

[[record]]
molecule_smiles = "COc1ccc2c(c1)/C(=C\\c1ccc3ccc4ccc(/C=C5/C(=O)Nc6ccc(OC)cc65)nc4c3n1)C(=O)N2"
label = "MET"

[[record]]
molecule_smiles = "COc1ccc2c(c1)/C(=C\\c1cc(C(C)(C)C)cc(/C=C3/C(=O)Nc4ccc(OC)cc43)c1O)C(=O)N2"
label = "MET"

[[record]]
molecule_smiles = "O=C1Nc2cccc(F)c2C1=Cc1cccc(C=C2C(=O)Nc3cccc(F)c32)n1"
label = "MET"

[[record]]
molecule_smiles = "O=Cc1cccc(/C=C2/C(=O)Nc3c2ccc2ccccc32)n1"
label = "NOT MET"

[[record]]
molecule_smiles = "COc1ccc2c(c1)/C(=C\\c1ccccc1/C=C1/C(=O)Nc3ccc(OC)cc31)C(=O)N2"
label = "NOT MET"


----------
Experiment: Growth inhibition of human CNS cancer cell by NCI-CLS assay
Format: functional
Details: Cancer cell lines
Respond with True for TGI values of 10 µM and above, False for values below.

[[record]]
molecule_smiles = "Cc1[nH]c(C)c(/C=C2/C(=O)Nc3ccc(F)cc32)c1/C=C1/C(=O)Nc2ccc(F)cc21"
label = "True"

[[record]]
molecule_smiles = "COc1ccc2c(c1)/C(=C\\c1ccccc1/C=C1/C(=O)Nc3ccc(OC)cc31)C(=O)N2"
label = "True"

[[record]]
molecule_smiles = "O=Cc1cccc(/C=C2/C(=O)Nc3c2ccc2ccccc32)n1"
label = "True"

[[record]]
molecule_smiles = "O=C1Nc2cc(OC(F)(F)F)ccc2/C1=C\\c1cccc(/C=C2/C(=O)Nc3cc(OC(F)(F)F)ccc32)n1"
label = "False"

[[record]]
molecule_smiles = "O=C1Nc2cccc(I)c2/C1=C\\c1cccc(/C=C2/C(=O)Nc3cccc(I)c32)n1"
label = "False"

[[record]]
molecule_smiles = "COc1ccc(OC)c2c1NC(=O)/C2=C/c1cccc(/C=C2/C(=O)Nc3c(OC)ccc(OC)c32)n1"
label = "False"

[[record]]
molecule_smiles = "O=C1Nc2cccc(Cl)c2/C1=C\\c1cccc(/C=C2/C(=O)Nc3cccc(Cl)c32)c1"
label = "True"

[[record]]
molecule_smiles = "CC(C)(C)c1cc(/C=C2/C(=O)Nc3cccc(Cl)c32)c(O)c(/C=C2/C(=O)Nc3cccc(Cl)c32)c1"
label = "True"

[[record]]
molecule_smiles = "O=C1Nc2c(ccc3ccccc23)/C1=C\\c1cccc(/C=C2/C(=O)Nc3c2ccc2ccccc32)n1"
label = "True"

